Target: T1, IL-18 receptor (IL-18Rαβ) on cells (UniProt Q13478 19-541; O95256 20-599, limits assumed)
T1 sequence (looked up) 1: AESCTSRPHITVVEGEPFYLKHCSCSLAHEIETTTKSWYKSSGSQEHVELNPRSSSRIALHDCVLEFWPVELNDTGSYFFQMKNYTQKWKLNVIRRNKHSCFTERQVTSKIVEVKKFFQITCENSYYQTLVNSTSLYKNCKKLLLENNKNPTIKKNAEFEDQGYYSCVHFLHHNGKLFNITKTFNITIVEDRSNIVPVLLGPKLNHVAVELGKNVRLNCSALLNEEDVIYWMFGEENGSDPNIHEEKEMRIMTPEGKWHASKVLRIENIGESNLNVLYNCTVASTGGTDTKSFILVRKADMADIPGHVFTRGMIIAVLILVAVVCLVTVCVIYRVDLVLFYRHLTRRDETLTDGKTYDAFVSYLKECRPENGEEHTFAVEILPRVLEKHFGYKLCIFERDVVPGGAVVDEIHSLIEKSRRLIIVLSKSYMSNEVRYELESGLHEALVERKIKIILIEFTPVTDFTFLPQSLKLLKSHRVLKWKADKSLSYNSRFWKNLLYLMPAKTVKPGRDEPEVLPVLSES
T1 sequence (looked up) 2: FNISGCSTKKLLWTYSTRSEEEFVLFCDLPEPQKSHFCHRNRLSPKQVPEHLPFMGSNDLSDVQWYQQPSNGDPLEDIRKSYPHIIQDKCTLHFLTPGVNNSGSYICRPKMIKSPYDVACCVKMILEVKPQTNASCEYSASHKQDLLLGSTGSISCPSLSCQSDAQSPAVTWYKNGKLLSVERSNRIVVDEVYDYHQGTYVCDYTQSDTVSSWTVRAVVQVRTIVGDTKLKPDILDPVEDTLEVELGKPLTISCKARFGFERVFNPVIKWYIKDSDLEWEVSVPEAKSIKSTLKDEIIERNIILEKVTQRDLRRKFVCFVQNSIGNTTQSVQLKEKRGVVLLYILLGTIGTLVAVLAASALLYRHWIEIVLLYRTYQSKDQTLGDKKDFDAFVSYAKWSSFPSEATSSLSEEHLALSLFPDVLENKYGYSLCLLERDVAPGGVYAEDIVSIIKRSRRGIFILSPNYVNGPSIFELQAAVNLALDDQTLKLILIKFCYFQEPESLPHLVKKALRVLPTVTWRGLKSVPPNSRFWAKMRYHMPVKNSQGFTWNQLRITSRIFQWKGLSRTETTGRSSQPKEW
Experiment: cell-based or functional assay
Property measured: EC50 (IFNγ stimulation, NK92) (nM)

Would you please look over these solved cases?
{"columns": ["Binder", "EC50 (IFNγ stimulation, NK92) (nM)"],
 "data": [
  ["C152 (ligand) YFGKLESKLSIIRNLNDQVLFIDQGNRPLFEDMTDADARDNAPRTIFIISMYADSQPRGMAVTISVKCEKISTLSAENKIISFKEMNPPDNIKDTKSDIIFFQRSVPGHDNKMQFESSSYEGYFLAAEKERDLFKLILKKEDELGDRSIMFTVQNED", 0.033],
  ["C168 (ligand) YFGKLESKLSIIRNLNDQVLFIDQGNRPLFEDMTDSDARDNAPRTIFIISMYKDSQPRGMAVTISVKCEKISTLSAENKIISFKEMNPPDNIKDTKSDIIFFQRKVPGHDNKMQFESSSYEGYFLAAEKERDLFKLILKKEDELGDRSIMFTVQNED", 0.098],
  ["SEQ ID NO 47 (ligand) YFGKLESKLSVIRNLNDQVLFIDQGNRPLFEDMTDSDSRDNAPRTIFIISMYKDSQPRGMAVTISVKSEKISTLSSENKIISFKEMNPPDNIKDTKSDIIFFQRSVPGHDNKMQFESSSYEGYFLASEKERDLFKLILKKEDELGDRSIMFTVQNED", 0.115]
]}

P. C145 (ligand) YFGKLESKLSIIRNLNDQVLFIDQGNRPLFEDMTDSDARDNAPRTIFIISMYADAQPRGMAVTISVKCEKISTLSAENKIISFKEMNPPDNIKDTKSDIIFFQRSVPGHDNKMQFESSSYEGYFLAAEKERDLFKLILKKEDELGDRSIMFTVQNED
Q. SEQ ID NO 57 (ligand) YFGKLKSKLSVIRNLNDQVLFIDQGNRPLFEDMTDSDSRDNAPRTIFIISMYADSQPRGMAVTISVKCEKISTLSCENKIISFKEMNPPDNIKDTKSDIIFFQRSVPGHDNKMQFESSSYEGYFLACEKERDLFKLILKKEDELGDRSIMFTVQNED
R. C153 (ligand) YFGKLESKLSIIRNLNDQVLFIDQGNRPLFEDMTDSAARDNAPRTIFIISMYADSQPRGMAVTISVKCEKISTLSAENKIISFKEMNPPDNIKDTKSDIIFFQRSVPGHDNKMQFESSSYEGYFLAAEKERDLFKLILKKEDELGDRSIMFTVQNED
S. SEQ ID NO 48 (ligand) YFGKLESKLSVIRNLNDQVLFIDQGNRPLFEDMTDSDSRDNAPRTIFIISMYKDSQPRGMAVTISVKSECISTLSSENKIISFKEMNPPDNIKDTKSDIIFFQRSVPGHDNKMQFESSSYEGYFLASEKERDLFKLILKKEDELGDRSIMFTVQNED
Prompt: Put the items in order so that reported EC50 (IFNγ stimulation, NK92) rises from first to last. Please reply with the labels ordered as requested. Many thanks.
Completion: Q, P, R, S
